biological target: HLA-A*2902 (human); assay: competition, purified HLA
assay.readout: pIC50
The value called pIC50 is obtained by taking minus log10 of the concentration in mol/L.

Prompt: Note pIC50 for the binder shown: TLEKITNTELY (modifications not checked)
Completion: 5.08

Prompt: Note pIC50 for the binder shown: AYGPGPGKF (modifications not checked)
Completion: 4.35

Prompt: Note pIC50 for the binder shown: RQAKQHTCY (modifications not checked)
Completion: 3.81

Prompt: Note pIC50 for the binder shown: TQGPGPGKY (modifications not checked)
Completion: 4.43

Prompt: Note pIC50 for the binder shown: YTGPGPGVY (modifications not checked)
Completion: 5.70

Further cases:
Prompt: Note pIC50 for the binder shown: TQDLVQEKY (modifications not checked)
Completion: 4.48

Prompt: Note pIC50 for the binder shown: EVDGPGPGY (modifications not checked)
Completion: 4.59

Prompt: Note pIC50 for the binder shown: EYRHYNYSLY (modifications not checked)
Completion: 6.02
